Kindly supply the reported viability, T/C values for the records listed here.
- Test system: PDC KRAS tumor spheroids with HUVEC/MSC, viability
- method: Anticancer human tumor 349418-098-R-PDC patient-derived lung adenocarcinoma cell line growth inhibition [KRAS2]
- experimental context: second compound 1 µM; first compound 0.000316 µM; hits give low values
- Text: Multicellular complex tumor spheroid response to RAS pathway inhibitors in combination with a targeted agents in patient-derived cell lines with oncogenic KRAS variants from multiple cancer types A high-throughput screen of multi-cell type tumor spheroids was designed to identify active combinations of targeted small molecules and KRAS pathway inhibitors. […] Compounds. […] If the clinical Cmax for an agent had not been determined, the highest concentration tested was 10 microM. […]

- CN(C)C/C=C/C(=O)Nc1cc2c(Nc3ccc(F)c(Cl)c3)ncnc2cc1O[C@H]1CCOC1 + C=CC(=O)N1CCN(c2nc(=O)n(-c3c(C)ccnc3C(C)C)c3nc(-c4c(O)cccc4F)c(F)cc23)C(C)C1: 90.6%

List viability, T/C for every entry below, keeping the order given.
1. Cn1ncnc1[C@H]1c2n[nH]c(=O)c3cc(F)cc(c23)N[C@@H]1c1ccc(F)cc1 + CC1OCC2(CCN(c3cnc(Sc4ccnc(N)c4Cl)c(N)n3)CC2)C1N
2. CC(=O)Nc1cccc(-n2c(=O)n(C3CC3)c(=O)c3c(Nc4ccc(I)cc4F)n(C)c(=O)c(C)c32)c1 + COc1cc2nc(C)nc(NC(C)c3cc(N)cc(C(F)(F)F)c3)c2cc1OC1CCOC1
3. Cn1ncnc1[C@H]1c2n[nH]c(=O)c3cc(F)cc(c23)N[C@@H]1c1ccc(F)cc1 + C=CC(=O)N1CCN(c2nc(OCC3CCCN3C)nc3c2CCN(c2cccc4cccc(C)c24)C3)CC1CC#N
4. CC(C)n1nc(-c2ccc3oc(N)nc3c2)c2c(N)ncnc21 + COc1cc2nc(C)nc(NC(C)c3cc(N)cc(C(F)(F)F)c3)c2cc1OC1CCOC1
5. CC(C)n1nc(-c2ccc3oc(N)nc3c2)c2c(N)ncnc21 + C=CC(=O)N1CCN(c2nc(=O)n(-c3c(C)ccnc3C(C)C)c3nc(-c4c(O)cccc4F)c(F)cc23)C(C)C1
6. CN(C)C/C=C/C(=O)Nc1cc2c(Nc3ccc(F)c(Cl)c3)ncnc2cc1O[C@H]1CCOC1 + C=CC(=O)N1CCN(c2nc(OCC3CCCN3C)nc3c2CCN(c2cccc4cccc(C)c24)C3)CC1CC#N
7. CC(C)n1nc(-c2ccc3oc(N)nc3c2)c2c(N)ncnc21 + CNCc1ccccc1-c1csc(C(C)Nc2nc(C)nc3cc(OC)c(OC)cc23)c1
8. CN(C)C/C=C/C(=O)Nc1cc2c(Nc3ccc(F)c(Cl)c3)ncnc2cc1O[C@H]1CCOC1 + CC1OCC2(CCN(c3cnc(Sc4ccnc(N)c4Cl)c(N)n3)CC2)C1N

95.8%
8.51%
84.4%
102%
68%
84.5%
73.1%
92.3%

====

Kindly supply the reported viability, T/C values for the records listed here.
- System: PDC KRAS tumor spheroids with HUVEC/MSC, viability
- method: Anticancer human tumor 349418-098-R-PDC cell line growth inhibition [KRAS2];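 note: spheroids exposed to compounds for seven days before readout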
- experimental context: second compound 0.1 µM; first compound 1 µM; hits give low values
Give bare numbers, in %.

Example entries begin here.
• COc1cc(Nc2ncc3c(n2)-c2ccc(Cl)cc2C(c2c(F)cccc2OC)=NC3)ccc1C(=O)O + CC1OCC2(CCN(c3cnc(Sc4ccnc(N)c4Cl)c(N)n3)CC2)C1N = 40.1
• CC1OCC2(CCN(c3cnc(Sc4ccnc(N)c4Cl)c(N)n3)CC2)C1N (stereo not drawn) + C=CC(=O)N1CCN(c2nc(OCC3CCCN3C)nc3c2CCN(c2cccc4cccc(C)c24)C3)CC1CC#N = 89.4

Alright, here's another compound for you.
Dear colleague, I am looking for the recorded viability, T/C of the following compound: O=C(c1cc(Cc2n[nH]c(=O)c3ccccc23)ccc1F)N1CCN(C(=O)C2CC2)CC1 + C=CC(=O)N1CCN(c2nc(=O)n(-c3c(C)ccnc3C(C)C)c3nc(-c4c(O)cccc4F)c(F)cc23)C(C)C1
21.4

====

- System: PDC KRAS tumor spheroids with HUVEC/MSC, viability
- method: Anticancer human tumor 349418-098-R-PDC cell line growth inhibition [KRAS2]; active = viability on the fitted dose curve at most 10% of control; inactive = the rest;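 note: spheroids exposed to compounds for seven days before readout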
- experimental context: second compound 1 µM; first compound 10 µM
Classes to choose from: active, inactive

Illustrative cases are given below, each with its answer.
* CC1(C)CCC(CN2CCN(c3ccc(C(=O)NS(=O)(=O)c4ccc(NCC5CCOCC5)c([N+](=O)[O-])c4)c(Oc4cnc5[nH]ccc5c4)c3)CC2)=C(c2ccc(Cl)cc2)C1 + C=CC(=O)N1CCN(c2nc(=O)n(-c3c(C)ccnc3C(C)C)c3nc(-c4c(O)cccc4F)c(F)cc23)C(C)C1 | active
* COC(=O)c1ccc2c(C(=Nc3ccc(N(C)C(=O)CN4CCN(C)CC4)cc3)c3ccccc3)c(O)[nH]c2c1 + C=CC(=O)N1CCN(c2nc(=O)n(-c3c(C)ccnc3C(C)C)c3nc(-c4c(O)cccc4F)c(F)cc23)C(C)C1 | inactive

What outcome does the record of this test show for COc1cc2nccc(Oc3ccc(NC(=O)C4(C(=O)Nc5ccc(F)cc5)CC4)cc3)c2cc1OC + CNCc1ccccc1-c1csc(C(C)Nc2nc(C)nc3cc(OC)c(OC)cc23)c1 ?
active

Can you look up the reported call for CC1OCC2(CCN(c3cnc(Sc4ccnc(N)c4Cl)c(N)n3)CC2)C1N (stereo not drawn) + CNCc1ccccc1-c1csc(C(C)Nc2nc(C)nc3cc(OC)c(OC)cc23)c1 for me?
inactive

What is the recorded call for this molecule in the test? O=C(c1cc(Cc2n[nH]c(=O)c3ccccc23)ccc1F)N1CCN(C(=O)C2CC2)CC1 + C=CC(=O)N1CCN(c2nc(OCC3CCCN3C)nc3c2CCN(c2cccc4cccc(C)c24)C3)CC1CC#N
inactive

What was the test verdict on Cn1nccc1Nc1nccc(-c2cc3c(s2)C(C)(C)N(CCN2CCOCC2)C3=O)n1 + CC1OCC2(CCN(c3cnc(Sc4ccnc(N)c4Cl)c(N)n3)CC2)C1N ?
active

Answer briefly: the call reported for COc1cc2nccc(Oc3ccc(NC(=O)C4(C(=O)Nc5ccc(F)cc5)CC4)cc3)c2cc1OC + CC1OCC2(CCN(c3cnc(Sc4ccnc(N)c4Cl)c(N)n3)CC2)C1N in this assay.
inactive

Given Cn1nccc1Nc1nccc(-c2cc3c(s2)C(C)(C)N(CCN2CCOCC2)C3=O)n1 + C=CC(=O)N1CCN(c2nc(OCC3CCCN3C)nc3c2CCN(c2cccc4cccc(C)c24)C3)CC1CC#N , state the outcome it received in this test.
active

====

- Tested on: PDC KRAS tumor spheroids with HUVEC/MSC, viability
- method: Anticancer human tumor 349418-098-R-PDC cell line growth inhibition [KRAS2]; active = viability on the fitted dose curve at most 10% of control; inactive = the rest;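 note: spheroids exposed to compounds for seven days before readout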
- experimental context: second compound 3.16 µM; first compound 0.1 µM
The reply should be one of these categories: active, inactive

Recorded results for 3 compounds are shown here.
* COc1cc(Nc2ncc3c(n2)-c2ccc(Cl)cc2C(c2c(F)cccc2OC)=NC3)ccc1C(=O)O + COc1cc2nc(C)nc(NC(C)c3cc(N)cc(C(F)(F)F)c3)c2cc1OC1CCOC1 | inactive
* CCN1CCN(Cc2ccc(Nc3ncc(F)c(-c4cc(F)c5nc(C)n(C(C)C)c5c4)n3)nc2)CC1 + COc1cc2nc(C)nc(NC(C)c3cc(N)cc(C(F)(F)F)c3)c2cc1OC1CCOC1 | inactive
* CN(C)C/C=C/C(=O)Nc1cc2c(Nc3ccc(F)c(Cl)c3)ncnc2cc1O[C@H]1CCOC1 + C=CC(=O)N1CCN(c2nc(OCC3CCCN3C)nc3c2CCN(c2cccc4cccc(C)c24)C3)CC1CC#N | active

What was the test verdict on CC(C)NCC(C(=O)N1CCN(c2ncnc3c2C(C)CC3O)CC1)c1ccc(Cl)cc1 (stereo not given) + C=CC(=O)N1CCN(c2nc(=O)n(-c3c(C)ccnc3C(C)C)c3nc(-c4c(O)cccc4F)c(F)cc23)C(C)C1 ?
inactive

Test call, this compound: CCNC(=O)CC1N=C(c2ccc(Cl)cc2)c2cc(OC)ccc2-n2c(C)nnc21 (stereo not given) + CC1OCC2(CCN(c3cnc(Sc4ccnc(N)c4Cl)c(N)n3)CC2)C1N
inactive

====

- System: PDC KRAS tumor spheroids with HUVEC/MSC, viability
- method: Anticancer human tumor 349418-098-R-PDC cell line growth inhibition [KRAS2]; active means viability on the fitted dose curve at most 10% of control; inactive means the rest;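 note: spheroids exposed to compounds for seven days before readout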
- experimental context: second compound 0.316 µM; first compound 1 µM
- Description: Multicellular complex tumor spheroid response to RAS pathway inhibitors in combination with a targeted agents in patient-derived cell lines with oncogenic KRAS variants from multiple cancer types A high-throughput screen of multi-cell type tumor spheroids was designed to identify active combinations of targeted small molecules and KRAS pathway inhibitors. […] Compounds. […] If the clinical Cmax for an agent had not been determined, the highest concentration tested was 10 microM. […]
Parameter call: string, one of active, inactive

* O=C(c1cc(Cc2n[nH]c(=O)c3ccccc23)ccc1F)N1CCN(C(=O)C2CC2)CC1 + CC1OCC2(CCN(c3cnc(Sc4ccnc(N)c4Cl)c(N)n3)CC2)C1N | inactive
* COC(=O)c1ccc2c(C(=Nc3ccc(N(C)C(=O)CN4CCN(C)CC4)cc3)c3ccccc3)c(O)[nH]c2c1 + CC1OCC2(CCN(c3cnc(Sc4ccnc(N)c4Cl)c(N)n3)CC2)C1N | inactive
* O=C(c1cc(Cc2n[nH]c(=O)c3ccccc23)ccc1F)N1CCN(C(=O)C2CC2)CC1 + C=CC(=O)N1CCN(c2nc(OCC3CCCN3C)nc3c2CCN(c2cccc4cccc(C)c24)C3)CC1CC#N | inactive

Answer briefly: the call reported for CCNC(=O)CC1N=C(c2ccc(Cl)cc2)c2cc(OC)ccc2-n2c(C)nnc21 (configuration not stated) + CNCc1ccccc1-c1csc(C(C)Nc2nc(C)nc3cc(OC)c(OC)cc23)c1 in this assay.
inactive

I would be grateful if you could indicate the recorded call for CC(C)NCC(C(=O)N1CCN(c2ncnc3c2C(C)CC3O)CC1)c1ccc(Cl)cc1 (configuration not stated) + CC1OCC2(CCN(c3cnc(Sc4ccnc(N)c4Cl)c(N)n3)CC2)C1N .
inactive

Record lookup: outcome of this test for CCN1CCN(Cc2ccc(Nc3ncc(F)c(-c4cc(F)c5nc(C)n(C(C)C)c5c4)n3)nc2)CC1 + COc1cc2nc(C)nc(NC(C)c3cc(N)cc(C(F)(F)F)c3)c2cc1OC1CCOC1 ?
active

Please share the test call associated with COc1cc(Nc2ncc3c(n2)-c2ccc(Cl)cc2C(c2c(F)cccc2OC)=NC3)ccc1C(=O)O + C=CC(=O)N1CCN(c2nc(OCC3CCCN3C)nc3c2CCN(c2cccc4cccc(C)c24)C3)CC1CC#N .
inactive

Any idea what this test logged for CCN1CCN(Cc2ccc(Nc3ncc(F)c(-c4cc(F)c5nc(C)n(C(C)C)c5c4)n3)nc2)CC1 + C=CC(=O)N1CCN(c2nc(=O)n(-c3c(C)ccnc3C(C)C)c3nc(-c4c(O)cccc4F)c(F)cc23)C(C)C1 ?
active
